Target: DPP4 (Homo sapiens, UniProt P27487)
Construct: purchased Sigma
Sequence (P27487 whole entry): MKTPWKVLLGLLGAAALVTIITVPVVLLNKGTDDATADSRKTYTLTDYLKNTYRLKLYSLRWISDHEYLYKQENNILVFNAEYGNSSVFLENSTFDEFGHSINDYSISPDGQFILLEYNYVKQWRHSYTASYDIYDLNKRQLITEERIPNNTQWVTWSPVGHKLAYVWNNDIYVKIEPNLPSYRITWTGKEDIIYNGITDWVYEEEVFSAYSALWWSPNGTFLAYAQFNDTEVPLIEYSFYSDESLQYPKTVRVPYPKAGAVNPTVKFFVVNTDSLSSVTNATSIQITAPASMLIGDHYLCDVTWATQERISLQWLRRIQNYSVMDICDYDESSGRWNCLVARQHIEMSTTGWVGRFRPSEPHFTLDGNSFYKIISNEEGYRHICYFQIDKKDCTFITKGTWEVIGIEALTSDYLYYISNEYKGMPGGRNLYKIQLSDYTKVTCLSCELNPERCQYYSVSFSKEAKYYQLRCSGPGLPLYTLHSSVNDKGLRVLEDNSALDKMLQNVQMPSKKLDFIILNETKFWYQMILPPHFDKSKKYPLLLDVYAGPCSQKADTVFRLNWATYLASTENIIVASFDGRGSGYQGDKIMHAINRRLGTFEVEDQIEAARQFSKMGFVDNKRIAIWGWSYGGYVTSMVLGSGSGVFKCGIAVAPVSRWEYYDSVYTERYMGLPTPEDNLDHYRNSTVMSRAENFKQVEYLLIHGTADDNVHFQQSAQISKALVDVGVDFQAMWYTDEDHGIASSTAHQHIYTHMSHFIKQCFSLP
Experiment: DPPIV-Glo Protease Assay (DPP4 protease inhibition assay)
Type: biochemical
Settings: in vitro
parameter-measured: IC50 (µM)
Provide only the numeric value, understood in µM.

1. Oc1cc(O)c2c(c1)O[C@H](c1ccc(O)c(O)c1)[C@H](O)C2 [epicatechin] = 281
2. O=C(OC1Cc2c(O)cc(O)cc2OC1c1cc(O)c(O)c(O)c1)c1cc(O)c(O)c(O)c1 (stereo not shown) [EGCG, Epigallocatechin-3-gallate] = 28.4
3. Oc1cc(O)c2c(c1)O[C@H](c1cc(O)c(O)c(O)c1)[C@H](O)C2 [epigallocatechin] = 567

Dear colleague, I am looking for the recorded IC50 of the following compound: O=C(O[C@@H]1Cc2c(O)cc(O)cc2O[C@@H]1c1ccc(O)c(O)c1)c1cc(O)c(O)c(O)c1 [epicatechin gallate]
107
